Recorded pIC50 by entry
Target: Recombinant Human Anaplastic Lymphoma Kinase (Homo sapiens, UniProt Q9UM73)
Construct: purchased Invitrogen, Carlsbad, Calif
Sequence (Q9UM73 19-1620): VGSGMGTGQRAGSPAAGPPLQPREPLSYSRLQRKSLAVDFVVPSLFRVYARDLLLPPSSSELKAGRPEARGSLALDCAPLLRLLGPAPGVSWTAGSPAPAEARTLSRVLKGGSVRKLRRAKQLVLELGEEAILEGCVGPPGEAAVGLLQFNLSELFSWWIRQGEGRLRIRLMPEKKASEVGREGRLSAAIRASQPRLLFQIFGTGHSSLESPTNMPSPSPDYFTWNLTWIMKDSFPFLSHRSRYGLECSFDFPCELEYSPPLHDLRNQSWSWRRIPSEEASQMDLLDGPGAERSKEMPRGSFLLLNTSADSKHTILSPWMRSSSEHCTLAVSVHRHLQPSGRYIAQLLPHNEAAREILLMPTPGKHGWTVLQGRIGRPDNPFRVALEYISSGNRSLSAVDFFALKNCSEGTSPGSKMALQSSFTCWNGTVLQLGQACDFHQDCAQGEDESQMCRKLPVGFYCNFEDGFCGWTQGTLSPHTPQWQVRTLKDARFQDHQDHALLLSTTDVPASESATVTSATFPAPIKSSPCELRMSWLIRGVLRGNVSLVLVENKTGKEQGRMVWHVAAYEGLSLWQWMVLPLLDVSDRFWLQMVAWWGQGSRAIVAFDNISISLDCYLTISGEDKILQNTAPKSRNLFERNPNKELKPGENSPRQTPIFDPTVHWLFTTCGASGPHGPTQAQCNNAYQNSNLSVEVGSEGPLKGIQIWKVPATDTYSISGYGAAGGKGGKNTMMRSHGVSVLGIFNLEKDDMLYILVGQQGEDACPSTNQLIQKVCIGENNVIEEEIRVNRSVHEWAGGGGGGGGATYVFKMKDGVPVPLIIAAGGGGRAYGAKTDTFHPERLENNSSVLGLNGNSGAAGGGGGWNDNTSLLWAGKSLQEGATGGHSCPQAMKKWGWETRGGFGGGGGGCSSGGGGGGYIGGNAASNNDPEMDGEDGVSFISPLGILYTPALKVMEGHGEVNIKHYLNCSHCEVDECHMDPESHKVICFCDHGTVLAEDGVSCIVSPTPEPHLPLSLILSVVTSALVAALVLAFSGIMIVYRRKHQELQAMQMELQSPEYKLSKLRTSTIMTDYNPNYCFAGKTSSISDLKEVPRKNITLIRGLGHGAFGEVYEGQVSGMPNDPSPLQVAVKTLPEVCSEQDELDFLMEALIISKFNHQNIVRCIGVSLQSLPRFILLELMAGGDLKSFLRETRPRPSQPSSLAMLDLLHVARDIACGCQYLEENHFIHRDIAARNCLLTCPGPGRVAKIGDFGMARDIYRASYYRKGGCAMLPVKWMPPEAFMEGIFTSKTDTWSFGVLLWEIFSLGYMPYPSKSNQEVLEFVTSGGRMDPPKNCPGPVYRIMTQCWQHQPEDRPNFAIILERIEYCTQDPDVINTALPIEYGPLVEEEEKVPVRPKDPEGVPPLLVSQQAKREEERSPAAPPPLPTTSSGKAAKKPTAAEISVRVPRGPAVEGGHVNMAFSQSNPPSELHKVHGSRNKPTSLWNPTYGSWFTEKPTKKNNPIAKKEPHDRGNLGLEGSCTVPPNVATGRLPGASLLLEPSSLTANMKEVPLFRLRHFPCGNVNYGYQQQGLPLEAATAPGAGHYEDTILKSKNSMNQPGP
Assay: ALK HTRF kinase assay
Type: biochemical
Conditions: Table D1; 90 μM ATP
pIC50: −log10 of the molar value. Where a name gives a salt, the structure may show the parent alone.
endpoint label: pIC50

[[record]]
compound = "Clc1cnc2nc1Nc1cccc(c1)CNc1cccc(c1)N2 [Example D17, bis(trifluoroacetate)]"
endpoint_label = "pIC50"
limit_sign = "<"
val = 6.00

[[record]]
compound = "CN1c2cccc(c2)OCCc2cccc(c2)Nc2ncc(Cl)c1n2 [Example D9, trifluoroacetate]"
endpoint_label = "pIC50"
limit_sign = "<"
val = 6.02

[[record]]
compound = "O=C(Nc1cc2cc(c1)OCCSc1cccc(c1)Nc1nc(ncc1Cl)N2)c1ccc2occc2c1 [Example D61, trifluoroacetate]"
endpoint_label = "pIC50"
limit_sign = "<"
val = 5.00

[[record]]
compound = "O=C(Nc1ccccc1)N1CCN(c2cc(-c3cc4cc(c3)Nc3ncc(Cl)c(n3)Nc3cccc(c3)OCC4)ccn2)CC1 [Example D44, bis(trifluoroacetate)]"
endpoint_label = "pIC50"
limit_sign = "="
val = 6.32

[[record]]
compound = "O=C(Nc1ccccc1)c1cc2cc(c1)OCCSc1cccc(c1)Nc1nc(ncc1Cl)N2 [Example D50, trifluoroacetate]"
endpoint_label = "pIC50"
limit_sign = "="
val = 5.82

[[record]]
compound = "Clc1cnc2nc1Nc1cccc(c1)NCCCc1cccc(c1)N2 [Example D75, bis(trifluoroacetate)]"
endpoint_label = "pIC50"
limit_sign = "="
val = 5.90

[[record]]
compound = "CC(=O)N1Cc2cccc(c2)Nc2ncc(Cl)c(n2)Nc2cccc(c2)C1 [Example D74, trifluoroacetate]"
endpoint_label = "pIC50"
limit_sign = "<"
val = 6.00

[[record]]
compound = "CC(=O)N1CCN(c2ccc(-c3cc4cc(c3)Nc3ncc(Cl)c(n3)Nc3cccc(c3)OCC4)cn2)CC1 [Example D37, tris(trifluoroacetate)]"
endpoint_label = "pIC50"
limit_sign = "="
val = 6.61

[[record]]
compound = "Clc1cnc2nc1Nc1cccc(c1)SCCOc1cccc(c1)N2 [Example D11, trifluoroacetate]"
endpoint_label = "pIC50"
limit_sign = "="
val = 6.32

[[record]]
compound = "Clc1cnc2nc1Nc1cccc(c1)OCCc1cc(cc(-c3cnc(N4CCNCC4)nc3)c1)N2 [Example D31, tris(trifluoroacetate)]"
endpoint_label = "pIC50"
limit_sign = "="
val = 6.98

[[record]]
compound = "O=C(c1cc2cc(c1)OCCSc1cccc(c1)Nc1nc(ncc1Cl)N2)N1CCN(c2ccccc2)CC1 [Example D53, bis(trifluoroacetate)]"
endpoint_label = "pIC50"
limit_sign = "="
val = 5.94

[[record]]
compound = "Clc1cnc2nc1Nc1cccc(c1)OCCc1cc(Br)cc(c1)N2 [Example D22, trifluoroacetate]"
endpoint_label = "pIC50"
limit_sign = "="
val = 6.31

[[record]]
compound = "O=C(NCc1ccco1)Nc1cc2cc(c1)OCCSc1cccc(c1)Nc1nc(ncc1Cl)N2 [Example D67, trifluoroacetate]"
endpoint_label = "pIC50"
limit_sign = "<"
val = 6.00

[[record]]
compound = "O=C(Nc1cc2cc(c1)OCCSc1cccc(c1)Nc1nc(ncc1Cl)N2)c1ccccc1 [Example D57, trifluoroacetate]"
endpoint_label = "pIC50"
limit_sign = "="
val = 6.37

[[record]]
compound = "Clc1cnc2nc1Nc1cccc(c1)SCc1cccc(c1)N2 [Example D1, trifluoroacetate]"
endpoint_label = "pIC50"
limit_sign = "="
val = 6.21

[[record]]
compound = "O=C(NCc1ccccc1)c1cc2cc(c1)OCCSc1cccc(c1)Nc1nc(ncc1Cl)N2 [Example D51, trifluoroacetate]"
endpoint_label = "pIC50"
limit_sign = "="
val = 6.04

[[record]]
compound = "Clc1cnc2nc1Nc1cccc(c1)CCSCc1cccc(c1)N2 [Example D34, trifluoroacetate]"
endpoint_label = "pIC50"
limit_sign = "<"
val = 6.00

[[record]]
compound = "Cc1nc(S(=O)(=O)Nc2cc3cc(c2)OCCSc2cccc(c2)Nc2nc(ncc2Cl)N3)cn1C [Example D69, bis(trifluoroacetate)]"
endpoint_label = "pIC50"
limit_sign = "="
val = 6.80

[[record]]
compound = "O=C(NCc1ccccc1)Nc1cc2cc(c1)OCCSc1cccc(c1)Nc1nc(ncc1Cl)N2 [Example D66, trifluoroacetate]"
endpoint_label = "pIC50"
limit_sign = "="
val = 6.11

[[record]]
compound = "O=C(Nc1cc2cc(c1)OCCSc1cccc(c1)Nc1nc(ncc1Cl)N2)c1ccco1 [Example D62, trifluoroacetate]"
endpoint_label = "pIC50"
limit_sign = "="
val = 6.42

[[record]]
compound = "Cc1cc(C(=O)Nc2cc3cc(c2)OCCSc2cccc(c2)Nc2nc(ncc2Cl)N3)no1 [Example D58, trifluoroacetate]"
endpoint_label = "pIC50"
limit_sign = "="
val = 6.31

[[record]]
compound = "Clc1cnc2nc1Nc1cccc(c1)CSCc1cccc(c1)N2 [Example D20, trifluoroacetate]"
endpoint_label = "pIC50"
limit_sign = "="
val = 6.22

[[record]]
compound = "Clc1cnc2nc1Nc1cccc(c1)COc1cccc(c1)N2 [Example D6, trifluoroacetate]"
endpoint_label = "pIC50"
limit_sign = "="
val = 5.38


Each recorded value in this set is attributed to patent US8871753B2.
